Where do these numbers come from? They come from the supplement of paper PMC12350171.

- Tested on: P. vulgatus WT;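 further: active when median AUC fell below 0.1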
- protocol details: growth AUC normalised to DMSO control (median) (fraction of control); higher = less growth inhibition, active = hit call of the paper;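 active = normalised median growth AUC below 0.1 of DMSO control; inactive = AUC 0.1 or higher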
- details: 20 µM
Where a name gives a salt, the structure may show the parent alone.
Bench note: report the call from 1.0 = active, 0.0 = inactive

Worked examples follow.
{"compound": "C=CC1=C(C(=O)O)N2C(=O)[C@@H](NC(=O)/C(=N\\O)c3csc(N)n3)[C@H]2SC1", "answer label": 1.0}
{"compound": "Nc1ccc(S(=O)(=O)Nc2cnc3ccccc3n2)cc1 [Sulfaquinoxaline sodium salt]", "answer label": 0.0}
{"compound": "CC(=O)O[C@@]12CO[C@@H]1C[C@H](O)[C@@]1(C)C(=O)[C@H](O)C3=C(C)[C@@H](OC(=O)[C@H](O)[C@@H](NC(=O)OC(C)(C)C)c4ccccc4)C[C@@](O)([C@@H](OC(=O)c4ccccc4)[C@H]21)C3(C)C", "answer label": 0.0}
{"compound": "COc1ccc(C(=O)CC(=O)c2ccc(C(C)(C)C)cc2)cc1", "answer label": 0.0}

[Q] Hello, I am checking results. What call was entered for c1ccc2c(c1)CCCC2C1=NCCN1 (stereo not drawn) [Tetrahydrozoline hydrochloride] ?
[A] 0.0

[Q] Subsequent entry: "Cc1ccc(=O)n(-c2ccccc2)c1"
[A] 0.0

[Q] Subsequent entry: CN1CCCN(C(c2ccccc2)c2ccc(Cl)cc2)CC1 (stereo not drawn) [Homochlorcyclizine dihydrochloride]
[A] 0.0

[Q] Subsequent entry: "Oc1ncnc2[nH]ncc12"
[A] 0.0

---

- Tested on: P. vulgatus WT;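 further: active when median AUC fell below 0.1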
- protocol details: growth AUC normalised to DMSO control (median) (fraction of control); higher = less growth inhibition, active = hit call of the paper
- details: 20 µM
Structures can show the parent of a compound that is named as a salt.
experimental readout: growth AUC normalised to DMSO control

Examples from the recorded data:
{"molecule": "OCc1cc(C(O)CNCCCCCCOCCCCc2ccccc2)ccc1O (stereo not given)", "target or system": "P. vulgatus WT", "growth AUC normalised to DMSO control": "0.962 (inactive)"}
{"molecule": "COc1cc2/c(=N/c3ccc(Br)cc3F)nc[nH]c2cc1OCC1CCN(C)CC1", "target or system": "P. vulgatus WT", "growth AUC normalised to DMSO control": "1.08 (inactive)"}
{"molecule": "COc1ccc([C@@H]2CC(=O)c3c(O)cc(O[C@@H]4O[C@H](CO[C@@H]5O[C@@H](C)[C@H](O)[C@@H](O)[C@H]5O)[C@@H](O)[C@H](O)[C@H]4O)cc3O2)cc1O", "target or system": "P. vulgatus WT", "growth AUC normalised to DMSO control": "1 (inactive)"}
{"molecule": "Oc1c(Br)cc(Br)c2cccnc12", "target or system": "P. vulgatus WT", "growth AUC normalised to DMSO control": "0.0591 (active)"}
{"molecule": "CN(CCCN1c2ccccc2CCc2ccccc21)CC(=O)c1ccc(Cl)cc1", "target or system": "P. vulgatus WT", "growth AUC normalised to DMSO control": "0.964 (inactive)"}
{"molecule": "CCN(CC)CCOc1ccc(C(=C(Cl)c2ccccc2)c2ccccc2)cc1 [(Z,E) Clomiphene citrate]", "target or system": "P. vulgatus WT", "growth AUC normalised to DMSO control": "0.964 (inactive)"}
{"molecule": "CC(C)(Sc1cc(C(C)(C)C)c(O)c(C(C)(C)C)c1)Sc1cc(C(C)(C)C)c(O)c(C(C)(C)C)c1", "target or system": "P. vulgatus WT", "growth AUC normalised to DMSO control": "0.997 (inactive)"}
{"molecule": "CC(=O)OCC(=O)[C@@]1(O)CC[C@H]2[C@@H]3CCC4=CC(=O)C=C[C@]4(C)[C@@]3(Cl)[C@@H](Cl)C[C@@]21C [Dichlorisone acetate]", "target or system": "P. vulgatus WT", "growth AUC normalised to DMSO control": "0.97 (inactive)"}

[Q] So what does the record say about growth AUC normalised to DMSO control for CNCCc1ccccn1 [Betahistine mesylate] ?
[A] 1 (inactive)

[Q] Subsequent entry: "NCCCC[C@H](N[C@@H](CCc1ccccc1)C(=O)O)C(=O)N1CCC[C@H]1C(=O)O"
[A] 1.04 (inactive)
